Origin of values: ChEMBL document CHEMBL3393039

target of assay: Bile acid receptor (Homo sapiens)
protocol summary: Transactivation of human FXR expressed in human HeLa cells incubated for 24 hrs by luciferase reporter gene assay relative to GW4064
Assay type: cell-based
measurement type: max activation (%)
Quick note: give the figure in %, leave out the unit.

Consider the reported max activation for these compounds:
| compound structure | unit of measurement | max activation |
| --- | --- | --- |
| Cc1c(NC(=O)c2ccccc2NC(=O)c2ccc(C(C)(C)C)cc2)cccc1C(=O)O | % | 19 |
| CC(C)(C)c1ccc(C(=O)Nc2ccccc2C(=O)Nc2cccc(C#N)c2)cc1 | % | 18 |
| CC(C)(C)c1ccc(C(=O)Nc2ccccc2C(=O)Nc2cc(C(=O)O)ccc2F)cc1 | % | 12 |
| CC(C)(C)c1ccc(C(=O)Nc2ccccc2C(=O)Nc2cccc(CCC(=O)O)c2)cc1 | % | 22 |

Input line: State the recorded max activation for this entry: `CSc1ccc(C(=O)Nc2ccccc2C(=O)Nc2cccc(CC(=O)O)c2)cc1`
Output line: 16.9

====

Each item that follows carries a reported max activation.
target of assay: Bile acid receptor (Homo sapiens) (UniProt Q96RI1)
Sequence (Q96RI1 whole entry): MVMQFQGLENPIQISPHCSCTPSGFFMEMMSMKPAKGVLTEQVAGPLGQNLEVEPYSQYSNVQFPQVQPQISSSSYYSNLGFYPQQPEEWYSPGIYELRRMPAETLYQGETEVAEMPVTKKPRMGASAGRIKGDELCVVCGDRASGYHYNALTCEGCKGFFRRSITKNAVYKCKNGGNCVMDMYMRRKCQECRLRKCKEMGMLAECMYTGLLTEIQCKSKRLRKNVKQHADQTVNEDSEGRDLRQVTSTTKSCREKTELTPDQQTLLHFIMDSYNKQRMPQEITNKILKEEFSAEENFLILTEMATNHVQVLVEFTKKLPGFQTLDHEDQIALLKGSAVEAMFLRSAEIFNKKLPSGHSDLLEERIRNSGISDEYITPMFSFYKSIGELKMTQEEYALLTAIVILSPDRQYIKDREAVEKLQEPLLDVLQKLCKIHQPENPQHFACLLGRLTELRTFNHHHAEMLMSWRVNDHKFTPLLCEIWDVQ
protocol summary: Transactivation of human FXR expressed in human HeLa cells incubated for 24 hrs by luciferase reporter gene assay relative to GW4064
Assay type: cell-based
Quick note: give the figure in %, leave out the unit.

| compound structure | measurement type | test value |
| --- | --- | --- |
| CC(C)(C)c1ccc(C(=O)Nc2ccccc2C(=O)Nc2ccc(Cl)c(C(=O)O)c2)cc1 | max activation | 19 |
| O=C(O)Cc1cccc(NC(=O)c2ccccc2NC(=O)c2ccc(C(F)(F)F)cc2)c1 | max activation | 14.8 |
| O=C(O)c1cccc(NC(=O)c2cc(Cl)ccc2NC(=O)c2ccc(C(F)(F)F)cc2)c1 | max activation | 16.9 |
| O=C(O)CCc1cccc(NC(=O)c2ccccc2NC(=O)c2ccc(C(F)(F)F)cc2)c1 | max activation | 13 |

Let us examine a further case.
Input line: State the recorded max activation for this entry: `O=C(O)Cc1cccc(NC(=O)c2ccccc2NC(=O)c2ccc(SC(F)(F)F)cc2)c1`
Output line: 23

====

target of assay: Peroxisome proliferator-activated receptor gamma (Homo sapiens)
protocol summary: Transactivation of Gal4-tagged PPARgamma ligand binding domain (unknown origin) expressed in COS7 cells measured after overnight incubation by luciferase reporter gene assay relative to piaglitazone
Format: cell-based
details: Chlorocebus aethiops; COS-7
Each item that follows carries a reported max activation.
Quick note: give the figure in %, leave out the unit.

Consider the reported max activation for these molecules:
| compound structure | test value |
| --- | --- |
| O=C(O)c1cccc(NC(=O)c2ccccc2NC(=O)c2ccc(Br)cc2)c1 | 58 |
| O=C(O)CCc1cccc(NC(=O)c2ccccc2NC(=O)c2ccc(C(F)(F)F)cc2)c1 | 70 |
| O=C(O)c1cccc(NC(=O)c2ccccc2NC(=O)c2ccc(C(F)(F)F)cc2)c1 | 384 |
| CC(C)(C)c1ccc(C(=O)Nc2ccccc2C(=O)Nc2ccc(Cl)c(C(=O)O)c2)cc1 | 98 |
| O=C(O)c1cccc(NC(=O)c2ccccc2NC(=O)c2ccc3c(c2)OCO3)c1 | 221 |

Input line: State the recorded max activation for this entry: `O=C(O)c1cccc(NC(=O)c2cc(Cl)ccc2NC(=O)c2ccc(C(F)(F)F)cc2)c1`
Output line: 415

Input line: State the recorded max activation for this entry: `CC(C)(C)c1ccc(C(=O)Nc2ccccc2C(=O)Nc2ccc(Br)c(C(=O)O)c2)cc1`
Output line: 82

Input line: State the recorded max activation for this entry: `O=C(O)CCCNC(=O)c1ccccc1NC(=O)c1ccccc1-c1ccccc1`
Output line: 45

Input line: State the recorded max activation for this entry: `CC(C)(C)c1ccc(C(=O)Nc2ccccc2C(=O)Nc2cccc(CC(=O)O)c2)cc1`
Output line: 121

Input line: State the recorded max activation for this entry: `CC(C)(C)c1ccc(C(=O)Nc2cc(Cl)ccc2C(=O)Nc2cccc(C(=O)O)c2)cc1`
Output line: 256

Input line: State the recorded max activation for this entry: `Cc1c(NC(=O)c2ccccc2NC(=O)c2ccc(C(C)(C)C)cc2)cccc1C(=O)O`
Output line: 70

Input line: State the recorded max activation for this entry: `O=C(O)c1ccc(NC(=O)c2ccccc2NC(=O)c2ccc3ccccc3c2)cc1`
Output line: 639
